target: UniProt:P14902; assay: HEK Human IDO-1 inhibition assay (kynurenine readout, Ehrlich reagent, absorbance 490 nm); conditions: human IDO1/HEK293 cells, incubated 20 hours with compound; 500 nM reference standard = 100% inhibition
pIC50: −log10 of the molar value.
Kindly supply the reported pIC50 values for the records listed here.

I'd like to know its pIC50. The compound in question is Cc1ccc(NC(=O)Nc2cc(OCC(=O)O)ccc2N(CC2CC2)C2CCCCC2)cc1 ≤ 7.00

I'd like to know its pIC50. The compound in question is CCC(Oc1ccc(N(CC(C)C)C2CCOCC2)c(NC(=O)Nc2ccc(Cl)cc2F)c1)C(=O)O (single isomer, unassigned) [Example 143-1] > 7.00

I'd like to know its pIC50. The compound in question is Cc1ccc(NC(=O)Nc2cc(OCC(=O)O)ccc2N(CC(C)C)C2CCCCC2)cc1 > 7.00

I'd like to know its pIC50. The compound in question is CC(C)CN(c1ccc(OCC(=O)O)cc1NC(=O)Cc1ccc(F)cc1)C1CCCCC1 ≤ 7.00

I'd like to know its pIC50. The compound in question is CC(C)CN(c1ccc(OC(C)C(=O)O)cc1NC(=O)Nc1ccc(C#N)cc1)C1CCCCC1 (single isomer, unassigned) [Example 66-2] > 8.30

I'd like to know its pIC50. The compound in question is Cc1cc(NC(=O)Nc2cc(OCC(=O)O)c(F)cc2N(CC(C)C)C2CCCCC2)on1 ≤ 7.00

I'd like to know its pIC50. The compound in question is Cc1cc(NC(=O)Nc2cc(OCC(=O)O)ccc2N(CC(C)C)C2CCCCC2)no1 ≤ 7.00

* * *

Kindly supply the reported IC50 values for the records listed here.
target: human IDO1 (Homo sapiens, UniProt P14902); assay: HEK Human IDO-1 inhibition assay (kynurenine readout, Ehrlich reagent, absorbance 490 nm); conditions: human IDO1/HEK293 cells, incubated 20 hours with compound; 500 nM reference standard = 100% inhibition
Sequence (P14902 whole entry): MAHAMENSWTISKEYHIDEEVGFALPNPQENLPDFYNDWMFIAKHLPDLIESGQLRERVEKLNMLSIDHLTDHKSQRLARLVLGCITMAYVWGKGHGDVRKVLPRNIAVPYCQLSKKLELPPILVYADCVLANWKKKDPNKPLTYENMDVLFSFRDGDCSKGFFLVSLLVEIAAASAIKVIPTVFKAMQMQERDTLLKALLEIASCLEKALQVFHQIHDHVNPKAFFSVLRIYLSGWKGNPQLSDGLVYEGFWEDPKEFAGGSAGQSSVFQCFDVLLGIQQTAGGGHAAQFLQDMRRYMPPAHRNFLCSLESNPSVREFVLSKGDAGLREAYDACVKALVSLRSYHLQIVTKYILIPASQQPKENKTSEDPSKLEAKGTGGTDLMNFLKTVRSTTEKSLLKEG

I'd like to know its IC50. The molecule in question is CC(C)CN(c1ccc(OCC(=O)O)cc1NC(=O)Nc1nccs1)C1CCCCC1 ≥ 100 nM

I'd like to know its IC50. The molecule in question is CC(C)CN(c1ccc(OC(C)c2ncco2)cc1NC(=O)Nc1ccc(Cl)cc1F)C1CCCCC1 (stereo not drawn) < 100 nM

I'd like to know its IC50. The molecule in question is CCCN(Cc1ccccc1)c1ccc(OCC(=O)O)cc1NC(=O)Nc1ccc(OC(F)(F)F)cc1 ≥ 100 nM

I'd like to know its IC50. The molecule in question is Cc1ccc(CC(=O)Nc2cc(OCC(=O)O)ccc2N(CC(C)C)C2CCCCC2)c(F)c1 < 100 nM

I'd like to know its IC50. The molecule in question is CC(C)CN(c1cc(Cl)c(OCC(=O)O)cc1NC(=O)Nc1ccc(Cl)cc1F)C1CCCCC1 < 100 nM

I'd like to know its IC50. The molecule in question is CCC(Oc1ccc(N(CC(C)C)C2CCCCC2)c(NC(=O)Nc2ccc(C)cc2)c1)C(=O)O (single isomer, unassigned) [Example 82-2] < 100 nM

I'd like to know its IC50. The molecule in question is CC(C)CN(c1ccc(OCC(=O)Nc2nccs2)cc1NC(=O)Nc1ccc(Cl)cc1F)C1CCCCC1 ≥ 100 nM

I'd like to know its IC50. The molecule in question is CC(C)CN(c1ccc(OC(C)C(=O)O)cc1NC(=O)Nc1ccc(Cl)cc1F)C1CCCCC1 (single isomer, unassigned) [Example 61-1] < 5 nM

I'd like to know its IC50. The molecule in question is CCOC(=O)COc1ccc(N(CC(C)C)C2CCCCC2)c(NC(=O)Nc2ccc(Cl)cc2F)c1 < 5 nM

I'd like to know its IC50. The molecule in question is CCOC(=O)C(C)Oc1ccc(N(CC(C)C)C2CCCCC2)c(NC(=O)Nc2ccc(Cl)cc2F)c1 (single isomer, unassigned) [Example 67-1] < 100 nM

I'd like to know its IC50. The molecule in question is Cc1ccc(NC(=O)Nc2cc(OCC(=O)NS(=O)(=O)C3CC3)ccc2N(CC(C)C)C2CCCCC2)cc1 < 100 nM

I'd like to know its IC50. The molecule in question is CC(C)CN(c1ccc(OC(C)C(=O)O)cc1Nc1nc2ccccc2o1)C1CCCCC1 (racemic) ≥ 100 nM

I'd like to know its IC50. The molecule in question is CC(C)CN(c1cc(F)c(OCC(=O)O)cc1NC(=O)Nc1ccccc1Cl)C1CCCCC1 ≥ 100 nM

I'd like to know its IC50. The molecule in question is COc1ccc(NC(=O)Nc2cc(OC(C)C(=O)O)ccc2N(CC(C)C)C2CCCCC2)c(F)c1 (single isomer, unassigned) [Example 64-2] < 5 nM

I'd like to know its IC50. The molecule in question is CC(C)CN(c1ccc(OCC(=O)O)cc1NC(=O)Nc1ccc(F)c(F)c1)C1CCCCC1 < 100 nM
